Target: TNK2 (ACK1, Activated Cdc42-associated kinase) (Homo sapiens, UniProt Q07912)
Construct: NanoLuc fusion (Promega NV4451)
Sequence (Q07912 whole entry, the tested form may be a part): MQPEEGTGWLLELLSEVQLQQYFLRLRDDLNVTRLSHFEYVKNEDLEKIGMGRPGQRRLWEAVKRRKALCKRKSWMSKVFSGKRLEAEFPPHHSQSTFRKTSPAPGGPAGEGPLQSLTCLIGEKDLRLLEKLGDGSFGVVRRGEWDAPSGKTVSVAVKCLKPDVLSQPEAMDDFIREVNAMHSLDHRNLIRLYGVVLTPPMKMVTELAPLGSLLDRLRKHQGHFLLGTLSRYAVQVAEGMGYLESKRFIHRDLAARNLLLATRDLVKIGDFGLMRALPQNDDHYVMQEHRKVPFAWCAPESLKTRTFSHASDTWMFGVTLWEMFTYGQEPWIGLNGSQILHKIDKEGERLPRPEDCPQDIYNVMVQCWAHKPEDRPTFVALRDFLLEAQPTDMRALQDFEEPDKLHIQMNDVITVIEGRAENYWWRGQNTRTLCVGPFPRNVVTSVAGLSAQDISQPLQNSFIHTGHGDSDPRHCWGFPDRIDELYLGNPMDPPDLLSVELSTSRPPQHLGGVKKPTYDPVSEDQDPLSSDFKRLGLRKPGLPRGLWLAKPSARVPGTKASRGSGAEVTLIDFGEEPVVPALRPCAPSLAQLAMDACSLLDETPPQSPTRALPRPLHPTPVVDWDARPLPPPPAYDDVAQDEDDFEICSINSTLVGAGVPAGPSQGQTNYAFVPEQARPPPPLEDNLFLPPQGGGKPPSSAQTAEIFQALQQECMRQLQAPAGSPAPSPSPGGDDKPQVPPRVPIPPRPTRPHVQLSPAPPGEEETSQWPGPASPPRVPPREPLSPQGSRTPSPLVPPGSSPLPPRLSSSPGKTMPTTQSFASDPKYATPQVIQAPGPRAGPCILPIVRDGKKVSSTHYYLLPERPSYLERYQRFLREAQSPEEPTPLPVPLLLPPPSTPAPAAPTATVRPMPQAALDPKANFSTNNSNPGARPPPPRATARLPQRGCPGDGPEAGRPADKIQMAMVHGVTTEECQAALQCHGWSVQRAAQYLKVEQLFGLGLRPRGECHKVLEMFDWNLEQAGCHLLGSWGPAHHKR
Assay: NanoBRET TE intracellular kinase assay with K-10 tracer in HEK293T cells
property-label: IC50 (nM)
Numbers only, in nM.

Please give measured IC50 of the following entry: COc1cc(N2CCC(N3CCN(C)CC3)CC2)ccc1Nc1ncc(Cl)c(Nc2ccccc2P(C)(C)=O)n1 [brigatinib]
350

----------
Molecular target: FAK1 (PTK2, focal adhesion kinase 1) (Homo sapiens)
Construct: NanoLuc fusion (Promega NV1921)
Sequence (Q05397 2-1052): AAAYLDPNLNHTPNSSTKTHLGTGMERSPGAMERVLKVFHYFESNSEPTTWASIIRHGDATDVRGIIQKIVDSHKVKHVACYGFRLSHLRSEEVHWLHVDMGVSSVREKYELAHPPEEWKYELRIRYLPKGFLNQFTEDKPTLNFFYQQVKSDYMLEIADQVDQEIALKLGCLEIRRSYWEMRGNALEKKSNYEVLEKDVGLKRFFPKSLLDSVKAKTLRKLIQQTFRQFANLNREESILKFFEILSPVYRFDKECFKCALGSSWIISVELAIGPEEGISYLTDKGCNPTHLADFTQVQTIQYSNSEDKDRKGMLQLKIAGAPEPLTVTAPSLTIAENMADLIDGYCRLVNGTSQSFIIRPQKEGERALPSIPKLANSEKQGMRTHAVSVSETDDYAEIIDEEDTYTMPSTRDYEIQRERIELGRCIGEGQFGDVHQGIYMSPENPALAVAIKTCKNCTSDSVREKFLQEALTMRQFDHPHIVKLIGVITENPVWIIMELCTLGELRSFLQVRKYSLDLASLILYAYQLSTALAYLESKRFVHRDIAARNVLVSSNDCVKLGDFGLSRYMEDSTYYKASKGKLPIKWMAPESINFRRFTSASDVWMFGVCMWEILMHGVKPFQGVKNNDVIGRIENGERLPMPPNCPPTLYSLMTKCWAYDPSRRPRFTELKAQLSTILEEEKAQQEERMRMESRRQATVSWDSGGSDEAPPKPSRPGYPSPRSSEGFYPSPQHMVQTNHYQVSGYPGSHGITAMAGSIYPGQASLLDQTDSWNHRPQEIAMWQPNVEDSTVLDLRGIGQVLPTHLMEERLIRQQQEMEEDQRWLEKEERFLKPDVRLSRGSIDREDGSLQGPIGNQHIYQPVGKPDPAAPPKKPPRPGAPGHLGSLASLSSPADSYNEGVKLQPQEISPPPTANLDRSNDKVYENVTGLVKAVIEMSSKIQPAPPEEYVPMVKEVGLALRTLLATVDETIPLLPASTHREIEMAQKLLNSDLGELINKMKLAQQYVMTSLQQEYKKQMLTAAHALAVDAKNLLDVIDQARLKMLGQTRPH
Test: NanoBRET TE intracellular kinase assay with K-10 tracer in HEK293T cells
property-label: pIC50
Give bare numbers, as −log10 of the molar value.

Consider the compound COc1cc(N2CCC(N3CCN(C)CC3)CC2)ccc1Nc1ncc(Cl)c(Nc2ccccc2P(C)(C)=O)n1 [brigatinib] . State its measured pIC50.
6.24

----------
Target: FER (Fps/Fes-related kinase) (Homo sapiens, UniProt P16591)
Construct: NanoLuc fusion (Promega NV1331)
Sequence (P16591 whole entry, the tested form may be a part): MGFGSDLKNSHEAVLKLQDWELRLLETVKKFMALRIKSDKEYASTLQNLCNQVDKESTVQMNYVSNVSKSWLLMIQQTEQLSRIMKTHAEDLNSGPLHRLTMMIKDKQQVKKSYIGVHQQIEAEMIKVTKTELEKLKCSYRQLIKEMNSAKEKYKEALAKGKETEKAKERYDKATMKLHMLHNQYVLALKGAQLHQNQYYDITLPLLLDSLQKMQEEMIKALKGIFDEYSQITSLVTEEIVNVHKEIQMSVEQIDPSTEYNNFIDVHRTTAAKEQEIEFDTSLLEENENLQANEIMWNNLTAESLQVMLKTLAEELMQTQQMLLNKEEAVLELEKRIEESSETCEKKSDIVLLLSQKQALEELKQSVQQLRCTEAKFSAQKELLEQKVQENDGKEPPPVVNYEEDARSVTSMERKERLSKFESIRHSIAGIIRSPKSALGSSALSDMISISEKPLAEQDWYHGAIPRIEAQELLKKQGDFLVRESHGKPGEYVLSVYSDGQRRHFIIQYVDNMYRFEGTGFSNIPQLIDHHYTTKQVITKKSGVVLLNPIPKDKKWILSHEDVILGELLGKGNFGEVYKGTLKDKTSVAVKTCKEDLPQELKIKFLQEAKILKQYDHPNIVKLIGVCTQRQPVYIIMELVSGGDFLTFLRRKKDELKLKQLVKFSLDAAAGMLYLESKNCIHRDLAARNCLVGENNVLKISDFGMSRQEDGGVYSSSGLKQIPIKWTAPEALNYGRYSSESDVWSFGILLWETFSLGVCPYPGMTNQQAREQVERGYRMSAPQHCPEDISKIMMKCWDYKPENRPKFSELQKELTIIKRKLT
Experiment: NanoBRET TE intracellular kinase assay with K-10 tracer in HEK293T cells
property-label: IC50 (µM)
One number for each entry, in µM.

Under FER (Fps/Fes-related kinase) (Homo sapiens, UniProt P16591), report IC50 for COc1cc(N2CCC(N3CCN(C)CC3)CC2)ccc1Nc1ncc(Cl)c(Nc2ccccc2P(C)(C)=O)n1
0.304
